molecular target: integrin α4β1 (Homo sapiens, UniProt P05556+P13612); construct: cell strain Jurkat (ATCC TIB-152) of human T cells, known to express integrin α4β1; endogenous in cells; host or cells: Jurkat (ATCC TIB-152), human T cells; test: Assessment of VCAM-1/α4β1 binding antagonist activity (Jurkat cells binding to VCAM-1); format: cell-based; conditions: Jurkat human T cells binding to recombinant human VCAM-1; read-out: integrin VCAM/α4 binding antagonistic activity (IC50) α4β1
READOUT KIND: pIC50
By convention, pIC50 is the negative base-10 log of a molar concentration.

Solved entries:
>>> data_value("COc1ccc2nnn(-c3ccc(C[C@H](NC(=O)c4c(Cl)cccc4Cl)C(=O)O)cc3)c(=O)c2c1 [Reference Example 84]")
6.80
>>> data_value("CCN(C)c1ccc2c(c1)c(=O)n(-c1ccc(C[C@H](NC(=O)c3c(Cl)cccc3Cl)C(=O)O)cc1)c(=O)n2C")
7.25
>>> data_value("O=C(N[C@@H](Cc1ccc(-n2c(=O)[nH]c3ncccc3c2=O)cc1)C(=O)O)c1c(Cl)cccc1Cl")
6.36
>>> data_value("O=C(N[C@@H](Cc1ccc(-n2c(=O)c3ccccc3n(Cc3c(F)cccc3F)c2=O)cc1)C(=O)O)c1c(Cl)cccc1Cl")
7.59
>>> data_value("O=C(N[C@@H](Cc1ccc(-n2c(=O)[nH]c3c(Cl)ccc(Cl)c3c2=O)cc1)C(=O)O)c1c(Cl)cccc1Cl")
6.72

State the recorded pIC50 for this entry: Cc1cccc2nnn(-c3ccc(C[C@H](NC(=O)c4c(Cl)cccc4Cl)C(=O)O)cc3)c(=O)c12
7.39

State the recorded pIC50 for this entry: O=C(N[C@@H](Cc1ccc(-n2c(=O)c3ccccc3n(Cc3c(F)cccc3Cl)c2=O)cc1)C(=O)O)c1c(Cl)cccc1Cl
6.96

State the recorded pIC50 for this entry: COc1ccc2c(c1)N(C)C(=O)N(c1ccc(C[C@H](NC(=O)c3c(Cl)cccc3Cl)C(=O)O)cc1)S2(=O)=O
7.92

State the recorded pIC50 for this entry: O=C(N[C@@H](Cc1ccc(-n2c(=O)[nH]c3cc(F)ccc3c2=O)cc1)C(=O)O)c1c(Cl)cccc1Cl
6.74

State the recorded pIC50 for this entry: O=C(N[C@@H](Cc1ccc(-n2c(=O)c3ccccc3n(Cc3ccccc3)c2=O)cc1)C(=O)O)c1c(Cl)cccc1Cl
6.51

State the recorded pIC50 for this entry: N#CCn1c(=O)n(-c2ccc(C[C@H](NC(=O)c3c(Cl)cccc3Cl)C(=O)O)cc2)c(=O)c2ccccc21
7.10

State the recorded pIC50 for this entry: CCOc1nc2ccc(F)cc2c(=O)n1-c1ccc(C[C@H](NC(=O)c2c(Cl)cccc2Cl)C(=O)O)cc1
5.87

State the recorded pIC50 for this entry: Cn1c(=O)n(-c2ccc(C[C@H](NC(=O)c3c(Cl)cccc3C(F)(F)F)C(=O)O)cc2)c(=O)c2ccccc21
6.92

----------
Target: integrin α4β7 (Homo sapiens, UniProt P13612+P26010)
Construct: lymphoma cell strain RPMI-8866 of human B cells, known to express integrin α4β7; endogenous in cells
Sequence (P13612 34-1032): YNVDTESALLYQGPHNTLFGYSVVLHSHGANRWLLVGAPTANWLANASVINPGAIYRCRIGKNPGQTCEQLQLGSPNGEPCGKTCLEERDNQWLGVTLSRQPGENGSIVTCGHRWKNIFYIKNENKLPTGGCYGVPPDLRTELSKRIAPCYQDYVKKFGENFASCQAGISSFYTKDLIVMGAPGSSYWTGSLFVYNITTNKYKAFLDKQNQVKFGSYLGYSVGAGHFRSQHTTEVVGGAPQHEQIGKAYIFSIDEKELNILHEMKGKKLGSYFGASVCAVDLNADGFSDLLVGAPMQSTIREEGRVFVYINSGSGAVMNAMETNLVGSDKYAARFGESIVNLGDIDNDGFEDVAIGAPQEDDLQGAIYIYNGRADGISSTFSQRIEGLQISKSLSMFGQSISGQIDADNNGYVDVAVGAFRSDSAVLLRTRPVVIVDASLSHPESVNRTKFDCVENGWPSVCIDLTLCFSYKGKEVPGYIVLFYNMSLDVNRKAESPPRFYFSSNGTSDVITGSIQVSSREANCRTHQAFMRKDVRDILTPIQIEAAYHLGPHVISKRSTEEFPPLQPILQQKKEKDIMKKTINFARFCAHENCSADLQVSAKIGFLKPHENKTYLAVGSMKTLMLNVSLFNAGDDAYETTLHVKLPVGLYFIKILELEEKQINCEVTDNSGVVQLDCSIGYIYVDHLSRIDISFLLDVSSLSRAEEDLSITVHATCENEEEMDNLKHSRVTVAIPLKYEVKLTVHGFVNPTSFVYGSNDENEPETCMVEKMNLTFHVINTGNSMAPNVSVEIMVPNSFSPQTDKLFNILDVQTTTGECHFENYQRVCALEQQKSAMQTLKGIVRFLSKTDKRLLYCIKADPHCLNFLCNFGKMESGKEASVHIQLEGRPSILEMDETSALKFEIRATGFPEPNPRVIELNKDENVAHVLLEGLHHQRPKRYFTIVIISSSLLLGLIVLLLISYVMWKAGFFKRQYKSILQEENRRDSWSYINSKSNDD
Sequence (P26010 20-798): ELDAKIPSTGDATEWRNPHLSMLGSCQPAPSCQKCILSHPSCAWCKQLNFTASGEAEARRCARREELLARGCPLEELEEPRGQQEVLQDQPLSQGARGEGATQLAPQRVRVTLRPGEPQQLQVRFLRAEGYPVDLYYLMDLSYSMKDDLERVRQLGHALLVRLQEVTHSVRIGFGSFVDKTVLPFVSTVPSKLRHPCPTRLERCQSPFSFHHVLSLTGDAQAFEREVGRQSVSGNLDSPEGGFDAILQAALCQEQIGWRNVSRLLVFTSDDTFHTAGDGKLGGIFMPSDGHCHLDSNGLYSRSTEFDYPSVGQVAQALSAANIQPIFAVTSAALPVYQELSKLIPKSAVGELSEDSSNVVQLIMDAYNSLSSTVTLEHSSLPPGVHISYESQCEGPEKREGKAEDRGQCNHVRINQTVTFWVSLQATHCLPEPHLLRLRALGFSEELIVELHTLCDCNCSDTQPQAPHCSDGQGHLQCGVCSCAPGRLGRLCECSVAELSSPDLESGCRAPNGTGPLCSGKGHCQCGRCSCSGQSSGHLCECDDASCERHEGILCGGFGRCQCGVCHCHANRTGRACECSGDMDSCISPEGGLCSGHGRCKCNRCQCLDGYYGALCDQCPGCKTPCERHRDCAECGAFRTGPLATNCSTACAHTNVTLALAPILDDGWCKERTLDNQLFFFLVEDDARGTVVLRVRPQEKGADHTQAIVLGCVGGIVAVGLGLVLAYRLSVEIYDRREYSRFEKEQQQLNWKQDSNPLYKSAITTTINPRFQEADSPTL
Test: Assessment of VCAM-1/α4β7 binding antagonistic activity (RPMI-8866 cells binding to VCAM-1)
Details: RPMI-8866 human B lymphoma cells binding to recombinant human VCAM-1, binding buffer with 4 mM MnCl2; read-out: integrin VCAM/α4 binding antagonistic activity (IC50) α4β7
READOUT KIND: IC50 (nM)
Write the answer as a number in nM, unit excluded.

>>> data_value("Cn1c(=O)n(-c2ccc(C[C@H](NC(=O)c3c(Cl)cccc3C(F)(F)F)C(=O)O)cc2)c(=O)c2ccccc21 [compound 164]")
7.1

State the recorded IC50 for this entry: Cc1cccc2nnn(-c3ccc(C[C@H](NC(=O)c4c(Cl)cccc4Cl)C(=O)O)cc3)c(=O)c12 [compound 89]
2.7

State the recorded IC50 for this entry: O=C(N[C@@H](Cc1ccc(-n2c(=O)[nH]c3cc(F)ccc3c2=O)cc1)C(=O)O)c1c(Cl)cccc1Cl [compound 78]
9.6

State the recorded IC50 for this entry: CN1C(=O)N(c2ccc(C[C@H](NC(=O)c3c(Cl)cccc3Cl)C(=O)O)cc2)S(=O)(=O)c2ccc(C(F)(F)F)cc21 [compound 100]
2.4

State the recorded IC50 for this entry: Cn1c(=O)n(-c2ccc(C[C@H](NC(=O)c3c(Cl)cccc3Cl)C(=O)O)cc2)c(=O)c2cc([N+](C)(C)C)ccc21 [Reference Example 112]
1.1

State the recorded IC50 for this entry: CCN(C)c1ccc2c(c1)c(=O)n(-c1ccc(C[C@H](NC(=O)c3c(Cl)cccc3Cl)C(=O)O)cc1)c(=O)n2C [compound 109]
4.3

State the recorded IC50 for this entry: O=C(N[C@@H](Cc1ccc(-n2nnc3ccc(F)cc3c2=O)cc1)C(=O)O)c1c(Cl)cccc1Cl [compound 85]
25

----------
molecular target: integrin α4β1 (Homo sapiens, UniProt P05556+P13612); construct: cell strain Jurkat (ATCC TIB-152) of human T cells, known to express integrin α4β1; endogenous in cells; test: Assessment of VCAM-1/α4β1 binding antagonist activity (Jurkat cells binding to VCAM-1); settings: Jurkat human T cells binding to recombinant human VCAM-1; read-out: integrin VCAM/α4 binding antagonistic activity (IC50) α4β1
pIC50: −log10 of the molar value.
Assign class by pIC50: not lower than 7 means true (1); lower than 7 means false (0).

>>> class_assignment("Cn1c(=O)n(-c2ccc(C[C@H](NC(=O)c3c(Cl)cccc3Br)C(=O)O)cc2)c(=O)c2ccccc21 [compound 165]")
"true (1)"
>>> class_assignment("CCC(C)n1c(=O)n(-c2ccc(C[C@H](NC(=O)c3c(Cl)cccc3Cl)C(=O)O)cc2)c(=O)c2cc([N+](=O)[O-])ccc21 (stereo partly shown) [compound 58]")
"false (0)"

Record Cc1ccc(Cn2c(=O)n(-c3ccc(C[C@H](NC(=O)c4c(Cl)cccc4Cl)C(=O)O)cc3)c(=O)c3ccccc32)cc1 [compound 118] ; criterion: pIC50 no lower than 7. Met?
false (0)

Record CC(C)CNc1nc2ccccc2c(=O)n1-c1ccc(C[C@H](NC(=O)c2c(Cl)cccc2Cl)C(=O)O)cc1 [compound 126] ; criterion: pIC50 no lower than 7. Met?
false (0)

Values were extracted from patent US7605165B2.
